assayComment: Cytotoxicity against HUVEC measured after 72 hrs by MTT assay
Type: toxicity, cell-based
particulars: human
The entries below are paired with their reported IC50 at 72 h.

{"columns": ["smilesEntry", "IC50 at 72 h (µM)"],
 "data": [
  ["COc1cc(N(Cc2csc3ccccc23)C(=O)CCl)cc(OC)c1OC", 26.1],
  ["COc1cc(N(Cc2ccsc2)C(=O)CCl)cc(OC)c1OC", 15.4],
  ["COc1cc(N(Cc2cc3ccccc3s2)C(=O)CCl)cc(OC)c1OC", 10.5],
  ["COC(=O)c1ccc([C@H]2c3[nH]c4ccccc4c3C[C@H](C(=O)OC)N2C(=O)CCl)cc1", 32.1],
  ["CCCCN(Cc1cc2ccccc2s1)C(=O)CCl", 8.58],
  ["COc1ccc(N(Cc2csc3ccccc23)C(=O)c2noc(C)c2[N+](=O)[O-])cc1OC", 31.8]
]}

---

The entries below are paired with their reported pIC50.
Test system: HT-1080
assayComment: Antiproliferative activity against human HT-1080 cells measured after 72 hrs by MTT assay
Type: functional, cell-based
particulars: HT-1080, 72 h
pIC50: −log10 of the molar value.

{"columns": ["compound", "limitSign", "pIC50"],
 "data": [
  ["COc1cc(N(Cc2ccsc2)C(=O)CCl)cc(OC)c1OC", "=", 5.44],
  ["O=C(CCl)N(Cc1cc2ccccc2s1)c1cccc(C(F)(F)F)c1", "=", 4.87],
  ["COc1cc(N(Cc2csc3ccccc23)C(=O)c2noc(C)c2[N+](=O)[O-])cc(OC)c1OC", "<", 4.70],
  ["Cc1onc(C(=O)N(Cc2csc3ccccc23)c2ccc(F)cc2)c1[N+](=O)[O-]", "<", 4.70],
  ["COc1ccc(N(Cc2cc3ccccc3s2)C(=O)CCl)cc1OC", "=", 5.05],
  ["COc1cc(N(Cc2ccoc2)C(=O)CCl)cc(OC)c1OC", "=", 5.38],
  ["O=C(CCl)N(Cc1cc2ccccc2[nH]1)c1ccc(F)cc1", "=", 5.03],
  ["COc1ccc(N(Cc2cc3ccccc3[nH]2)C(=O)CCl)cc1", "=", 4.93],
  ["COc1cc(N(Cc2cc3ccccc3s2)C(=O)CCl)cc(OC)c1OC", "=", 5.44],
  ["CCOc1ccccc1-n1c(C(C)N2CCN(C(=O)COc3ccc(Cl)cc3)CC2)nc2ccccc2c1=O (centres undefined)", "=", 5.45],
  ["O=C(CCl)N(Cc1csc2ccccc12)c1ccc(F)cc1", "=", 4.91],
  ["COc1ccc(N(Cc2cc3ccccc3s2)C(=O)CCl)cc1", "<", 4.70],
  ["COc1ccc(N(Cc2c[nH]c3ccccc23)C(=O)CCl)cc1OC", "=", 4.83],
  ["COc1ccc(N(Cc2c[nH]c3ccccc23)C(=O)CCl)cc1", "=", 4.91],
  ["O=C(CCl)N(Cc1ccsc1)c1ccccc1", "=", 5.33],
  ["O=C(CCl)N(Cc1c[nH]c2ccccc12)c1ccc(F)cc1", "=", 5.14],
  ["O=C(CCl)N(Cc1csc2ccccc12)c1cccc(C(F)(F)F)c1", "=", 4.95],
  ["COc1cc(N(Cc2csc3ccccc23)C(=O)CCl)cc(OC)c1OC", "=", 6.03],
  ["O=C(CCl)N(Cc1ccccc1)Cc1csc2ccccc12", "<", 4.70]
]}

---

The entries below are paired with their reported pIC50.
System: HT-1080
assayComment: Antiproliferative activity against human HT-1080 cells measured after 72 hrs by MTT assay
Type: functional, cell-based
particulars: HT-1080, 72 h
pIC50: −log10 of the molar value.

{"columns": ["smilesEntry", "targetUnderTest", "limitSign", "pIC50"],
 "data": [
  ["Cc1onc(C(=O)N(Cc2csc3ccccc23)c2ccccc2)c1[N+](=O)[O-]", "HT-1080", "<", 4.70],
  ["O=C(CCl)N(Cc1c[nH]c2ccccc12)c1ccccc1", "HT-1080", "=", 5.10],
  ["O=C(CCl)N(Cc1csc2ccccc12)c1ccccc1", "HT-1080", "=", 4.95],
  ["COc1ccc(N(Cc2csc3ccccc23)C(=O)CCl)cc1", "HT-1080", "=", 4.85],
  ["O=C(CCl)N(Cc1cc2ccccc2[nH]1)c1ccccc1", "HT-1080", "=", 4.82],
  ["COc1ccc(N(Cc2csc3ccccc23)C(=O)CCl)cc1OC", "HT-1080", "=", 5.37],
  ["COc1cc(N(Cc2ccsc2)C(=O)c2noc(C)c2[N+](=O)[O-])cc(OC)c1OC", "HT-1080", "<", 4.70],
  ["O=C(CCl)N(Cc1ccoc1)c1ccc(F)cc1", "HT-1080", "=", 5.22],
  ["CCCCN(Cc1cc2ccccc2s1)C(=O)CCl", "HT-1080", "=", 5.43],
  ["COc1cc(N(Cc2ccc3ccccc3n2)C(=O)c2noc(C)c2[N+](=O)[O-])cc(OC)c1OC", "HT-1080", "<", 4.70],
  ["COc1ccc(N(Cc2csc3ccccc23)C(=O)CCl)cc1Cl", "HT-1080", "=", 5.40]
]}
